assay_system: human antithrombin (human, UniProt P01008 33-464)
Sequence (P01008 33-464 limits assumed): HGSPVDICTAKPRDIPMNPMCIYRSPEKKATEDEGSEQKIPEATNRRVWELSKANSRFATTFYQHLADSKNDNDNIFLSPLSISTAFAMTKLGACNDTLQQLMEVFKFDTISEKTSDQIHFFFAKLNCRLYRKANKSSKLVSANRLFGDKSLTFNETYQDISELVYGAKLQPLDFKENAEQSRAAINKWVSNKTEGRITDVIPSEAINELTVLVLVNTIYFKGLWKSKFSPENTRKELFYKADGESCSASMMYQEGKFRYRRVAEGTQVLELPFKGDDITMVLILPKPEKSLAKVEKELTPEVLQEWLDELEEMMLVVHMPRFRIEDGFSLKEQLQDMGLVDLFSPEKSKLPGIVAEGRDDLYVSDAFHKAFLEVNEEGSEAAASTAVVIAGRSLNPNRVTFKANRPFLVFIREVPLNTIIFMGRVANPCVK
run_description: cell-based or functional assay
% antithrombin neutralization (thrombin amidolytic activity on S-2238, no heparin) values by entry
reported_endpoint: % antithrombin neutralization (thrombin amidolytic activity on S-2238, no heparin)

binder	reading
KB-AT-002 (VHH, Monovalent anti-antithrombin single-domain antibody; also called sdAb KB-AT-002) VHH: QVQLVQSGGGLVQAGGSLRLSCAASGRTFNNNGMGWFRQAPGKEREFVAAISWSGGSTYYADSVKGRYIMSRDNAKNTVYLQMNSLKPEDTAVYYCAARTRYNSGLFSRNYDYWGQGTQVTVSS	65%
KB-AT-003 (VHH, Monovalent anti-antithrombin single-domain antibody; also called sdAb KB-AT-003) VHH: QVQLVQSGGGLVQPGGSLRLSCAASALTFSSRAWAWYRQAPGKQRELVASITGGGTTNYADSVKGRFTISRDNAKNTVYLQMNSLKPEDTAVHYCNGYRYTYAWGQGTQVTVSS	67%
KB-AT-005 (VHH, Monovalent anti-antithrombin single-domain antibody; also called sdAb KB-AT-005) VHH: EVQLVESGGGLVQPGGSLRLSCEASGRDFNDAALGWSRQVPGKARETVAMITSGGVRNYAETVKDRFTISRDNAKNTVYLDMNNLQPDDTGVYYCKADSFKGDYDTSWYLYWGQGTQVTVSS	57%
